Parameter: In vitro activity compared to native-type peptide (%), vs Glucagon. Scope: all listed entries.
# MEASUREMENT_TARGET: human GCG receptor (human, UniProt P47871 26-477)
# Sequence (P47871 26-477): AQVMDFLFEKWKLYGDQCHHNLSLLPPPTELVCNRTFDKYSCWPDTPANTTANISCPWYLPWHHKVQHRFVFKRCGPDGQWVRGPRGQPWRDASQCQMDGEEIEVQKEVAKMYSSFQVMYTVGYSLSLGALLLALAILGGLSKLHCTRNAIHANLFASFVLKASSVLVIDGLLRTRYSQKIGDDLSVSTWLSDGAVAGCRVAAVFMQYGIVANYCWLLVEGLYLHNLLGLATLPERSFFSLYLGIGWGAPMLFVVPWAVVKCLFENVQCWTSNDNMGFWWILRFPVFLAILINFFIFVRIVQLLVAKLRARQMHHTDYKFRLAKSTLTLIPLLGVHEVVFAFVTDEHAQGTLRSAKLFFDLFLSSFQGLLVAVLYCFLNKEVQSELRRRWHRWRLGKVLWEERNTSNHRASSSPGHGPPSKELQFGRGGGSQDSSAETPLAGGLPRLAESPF
# ASSAY_PROTOCOL: cell-based or functional assay
Bridge positions count the residues as written; N and C are the ends. Square brackets hold non-standard residues; d marks the D form. Ends that are not written are not given here. * marks the point of attachment. Acetyl(2-(4-imidazolyl)) = O=C(Cc1c[nH]cn1)*; Aib = CC(C)(N)C(=O)O
MEASURED_METRIC: In vitro activity compared to native-type peptide (%), vs Glucagon

| BINDER | VALUE_PREFIX | OBSERVED |
| --- | --- | --- |
| H[Aib]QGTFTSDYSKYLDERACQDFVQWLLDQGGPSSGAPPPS [triple agonist of SEQ ID NO: 27] | = | 0.8 |
| H[Aib]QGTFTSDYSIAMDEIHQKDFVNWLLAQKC (bridge 16-20) [triple agonist of SEQ ID NO: 33] | < | 0.1 |
| H[Aib]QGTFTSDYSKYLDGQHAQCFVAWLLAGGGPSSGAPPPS [triple agonist of SEQ ID NO: 39] | = | 0.53 |
| H[Aib]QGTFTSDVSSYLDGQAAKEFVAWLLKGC [triple agonist of SEQ ID NO: 6] | < | 0.1 |
| H[Aib]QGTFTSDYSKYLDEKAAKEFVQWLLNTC (bridge 16-20) [triple agonist of SEQ ID NO: 29] | = | 6 |
| H[Aib]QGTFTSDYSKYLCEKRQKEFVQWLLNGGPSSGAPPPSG (bridge 16-20) [triple agonist of SEQ ID NO: 36] | = | 0.39 |
| {Acetyl(2-(4-imidazolyl))}-[Aib]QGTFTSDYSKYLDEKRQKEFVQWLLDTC (bridge 15-19) [triple agonist of SEQ ID NO: 82] | = | 1.1 |

Just for reference, patent US20230381333A1 is where these values come from.
